Taken from ChEMBL document CHEMBL1139065.

- assay-comment: Clearance in dog at 0.5 mg/kg, iv
- measurement-context: in vivo
We use 20 mL/min/kg as the dividing line for clearance: on or above the line is 1, below is -1.

Nc1noc2ccc(-n3nc(C(F)(F)F)cc3C(=O)NC3CCN(c4ccccc4CN4CCC[C@H]4O)CC3)cc12 = 1
COc1ccc(-n2nc(C(N)=O)c3c2C(=O)N(C2CCN(c4ccccc4S(C)(=O)=O)CC2)CC3)cc1 = -1
Nc1noc2ccc(-n3nc(C(F)(F)F)cc3C(=O)NC3CCN(c4ccccc4CN4CCCC4)CC3)cc12 = 1
CCN(C)Cc1ccccc1N1CCC(NC(=O)c2cc(C(F)(F)F)nn2-c2ccc3onc(N)c3c2)CC1 = 1
CNCc1ccccc1N1CCC(NC(=O)c2cc(C(F)(F)F)nn2-c2ccc3onc(N)c3c2)CC1 = 1
CS(=O)(=O)c1ccccc1N1CCC(NC(=O)c2cc(C(F)(F)F)nn2-c2ccc3onc(N)c3c2)CC1 = -1
